Hello, the source for this data is ChEMBL document CHEMBL4000220, in case you need it.

- targetUnderTest: UniProtKB P17752
- Sequence (P17752 whole entry): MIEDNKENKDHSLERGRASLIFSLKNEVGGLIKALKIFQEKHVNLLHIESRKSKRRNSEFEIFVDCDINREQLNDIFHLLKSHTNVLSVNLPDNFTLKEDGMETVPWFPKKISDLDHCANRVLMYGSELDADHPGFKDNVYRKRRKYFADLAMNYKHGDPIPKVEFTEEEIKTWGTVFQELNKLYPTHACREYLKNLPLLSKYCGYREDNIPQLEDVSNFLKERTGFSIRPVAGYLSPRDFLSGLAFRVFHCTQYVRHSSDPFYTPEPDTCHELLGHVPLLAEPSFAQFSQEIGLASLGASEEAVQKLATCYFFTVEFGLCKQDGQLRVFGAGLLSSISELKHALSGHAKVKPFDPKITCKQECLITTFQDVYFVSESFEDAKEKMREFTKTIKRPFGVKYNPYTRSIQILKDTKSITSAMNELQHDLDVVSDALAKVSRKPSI
assayReadout: pIC50
Value format note: pIC50 is -log10 of concentration (mol/L); just state the number.

Completed entries (count: 5):
{"columns": ["molecule", "targetUnderTest", "assayReadout", "reportedResult"],
 "data": [
  ["Cc1cc(-c2cc(Cl)ccc2[C@@H](Oc2cc(N3CCC4(CC3)CN[C@H](C(=O)O)C4)nc(N)n2)C(F)(F)F)ccc1Cl", "UniProtKB P17752", "pIC50", 7.21],
  ["N#Cc1cccc(-c2cc(Cl)ccc2[C@@H](Oc2cc(N3CCC4(CC3)CN[C@H](C(=O)O)C4)nc(N)n2)C(F)(F)F)c1", "UniProtKB P17752", "pIC50", 7.52],
  ["Nc1nc(O[C@H](c2ccc(Cl)cc2-c2cccc(N3CCCC3=O)c2)C(F)(F)F)cc(N2CCC3(CC2)CN[C@H](C(=O)O)C3)n1", "UniProtKB P17752", "pIC50", 7.11],
  ["Nc1nc(O[C@H](c2ccc(-c3ccc4cnccc4c3)cc2)C(F)(F)F)cc(N2CCC3(CC2)CN[C@H](C(=O)O)C3)n1", "UniProtKB P17752", "pIC50", 7.60],
  ["Nc1nc(O[C@H](c2ccc(-c3ccc4c(c3)CCC(=O)N4)cc2)C(F)(F)F)cc(N2CCC3(CC2)CN[C@H](C(=O)O)C3)n1", "UniProtKB P17752", "pIC50", 7.55]
]}

## Input Look up pIC50 for this molecule: `Cc1nn(C)c2cc(-c3ccc([C@@H](Oc4cc(N5CCC6(CC5)CN[C@H](C(=O)O)C6)nc(N)n4)C(F)(F)F)cc3)ccc12`
## Output 7.49

## Input Another: `Nc1nc(O[C@H](c2ccc(Cl)cc2-c2ccc(F)c(F)c2)C(F)(F)F)cc(N2CCC3(CC2)CN[C@H](C(=O)O)C3)n1`
## Output 7.46
